Cited source: patent US12552771B2

TGT: S1P5 receptors (Homo sapiens)
Sequence (Q9H228 whole entry): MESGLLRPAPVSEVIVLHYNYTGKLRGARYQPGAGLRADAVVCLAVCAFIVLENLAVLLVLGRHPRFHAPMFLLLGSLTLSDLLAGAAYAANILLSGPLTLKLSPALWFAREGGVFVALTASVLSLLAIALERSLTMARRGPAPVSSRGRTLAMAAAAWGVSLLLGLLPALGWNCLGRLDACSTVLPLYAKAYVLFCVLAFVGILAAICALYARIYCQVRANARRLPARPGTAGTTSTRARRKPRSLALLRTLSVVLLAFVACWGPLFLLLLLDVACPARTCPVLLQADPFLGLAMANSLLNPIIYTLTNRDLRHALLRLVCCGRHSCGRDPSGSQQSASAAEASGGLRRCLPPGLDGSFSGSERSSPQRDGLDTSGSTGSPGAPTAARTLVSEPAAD
TEST: [35S]-GTPγS binding assay with CHO-S1P5 receptor membranes
CONDITION_DESCRIPTION: membranes of CHO cells expressing recombinant S1P5 receptors; measure of S1P5 agonism
pEC50: −log10 of the molar value.
List of pEC50 values.
MEASURED_ATTRIBUTE: pEC50

INSERT INTO measurements (compound, tgt, result) VALUES
  ('O=C(O)C1CCN(C2CCc3cc(N4CC(c5ccccc5F)C4)ccc32)CC1 (single isomer, unassigned) [Compound 10b]', 'S1P5 receptors (Homo sapiens)', '5.00 to 6.00'),
  ('Cc1cc(C2CN(c3c(Cl)cccc3Cl)C2)cc(C2CC2)c1CN1CCC(C(=O)O)CC1', 'S1P5 receptors (Homo sapiens)', '≥ 8.00'),
  ('Cc1cc(C2CN(c3c(Cl)cccc3Cl)C2)cc(F)c1CN1CCC(C(=O)O)CC1', 'S1P5 receptors (Homo sapiens)', '≥ 8.00'),
  ('O=C(O)C1CCN(Cc2ccc(C3CN(c4c(Cl)cccc4Cl)C3)cc2F)CC1', 'S1P5 receptors (Homo sapiens)', '≥ 8.00'),
  ('Cc1cc(C2CN(c3ccccc3)C2)cc(C)c1CN1CCC(C(=O)O)CC1', 'S1P5 receptors (Homo sapiens)', '6.00 to 7.00'),
  ('Cc1cc(CN2CCC(C(=O)O)CC2)cnc1C1CN(c2c(Cl)cccc2Cl)C1', 'S1P5 receptors (Homo sapiens)', '6.00 to 7.00'),
  ('Cc1cc(CN2CCC(C(=O)O)CC2)c(C)nc1C1CN(c2c(Cl)cccc2Cl)C1', 'S1P5 receptors (Homo sapiens)', '7.00 to 8.00'),
  ('CC(C)(c1ccc(C2CN(c3c(Cl)cccc3Cl)C2)nc1)N1CCC(C(=O)O)CC1', 'S1P5 receptors (Homo sapiens)', '7.00 to 8.00'),
  ('O=C(O)C1CCN(Cc2ccc(N3CC(F)(c4c(Cl)cccc4Cl)C3)cc2)CC1', 'S1P5 receptors (Homo sapiens)', '5.00 to 6.00'),
  ('O=C(O)C1CCN(C2CCc3cc(C4CN(c5c(Cl)cccc5Cl)C4)ccc32)CC1 (single isomer, unassigned) [Compound 1a]', 'S1P5 receptors (Homo sapiens)', '≥ 8.00'),
  ('O=C(O)C1CCN(C2CCc3cc(C4CN(c5c(Cl)cccc5Cl)C4)ccc32)CC1 (single isomer, unassigned) [Compound 1b]', 'S1P5 receptors (Homo sapiens)', '6.00 to 7.00'),
  ('O=C(O)C1CCN(Cc2ccc(C3CN(c4c(F)cccc4F)C3)cc2)CC1', 'S1P5 receptors (Homo sapiens)', '6.00 to 7.00');

----------
TGT: S1P5 receptors (Homo sapiens)
Construct: expressed in transfected cells; host or cells: CHO cells (membranes)
TEST: [35S]-GTPγS binding assay with CHO-S1P5 receptor membranes
Type: biochemical
CONDITION_DESCRIPTION: membranes of CHO cells expressing recombinant S1P5 receptors; measure of S1P5 agonism
pEC50: −log10 of the molar value.
Recorded pEC50 values for a group of molecules are listed next.
MEASURED_ATTRIBUTE: pEC50

INSERT INTO measurements (molecule, result) VALUES
  ('Cc1cc(C2CN(c3c(Cl)cccc3Cl)C2)cc(C)c1CN1CC[C@H](C(=O)O)C1', '≥ 8.00'),
  ('Cc1cc(C2CN(c3c(Cl)cccc3Cl)C2)cc(C)c1CN1CCC(C(=O)O)CC1C (stereo not shown)', '7.00 to 8.00'),
  ('CCc1cccc(C)c1N1CC(c2cc(C)c(CN3CCC(C(=O)O)CC3)c(C)c2)C1', '≥ 8.00'),
  ('Cc1cc(C2CN(c3c(Cl)cccc3Cl)C2)cc(C)c1CN1CCC(C(=O)O)CC1', '≥ 8.00'),
  ('Cc1cc(C2CN(c3cccc(F)c3)C2)cc(C)c1CN1CCC(C(=O)O)CC1', '6.00 to 7.00'),
  ('O=C(O)C1CCN(Cc2ccc(C3CN(c4c(Cl)cccc4Cl)C3)c3ccccc23)CC1', '≥ 8.00'),
  ('O=C(O)C1CCN(Cc2ccc(C3CN(c4ccc(C5CC5)cc4)C3)cc2)CC1', '5.00 to 6.00'),
  ('O=C(O)C1CCN(C2CCc3cc(N4CC(c5c(F)cccc5F)C4)ccc32)CC1 (single isomer, unassigned) [Compound 9a]', '≥ 8.00'),
  ('Cc1cc(C2CN(c3c(Cl)cccc3Cl)C2)cc2c1C(N1CCC(C(=O)O)CC1)CC2 (racemic)', '≥ 8.00'),
  ('CC(C)(c1ccc(C2CN(c3c(Cl)cccc3Cl)C2)cc1)N1CCC(C(=O)O)CC1', '≥ 8.00'),
  ('Cc1cc(C2CN(c3c(Cl)cccc3Cl)C2)c(C)nc1CN1CCC(C(=O)O)CC1', '6.00 to 7.00'),
  ('O=C(O)C1CCN(Cc2ccc(C3CN(c4cccc(F)c4)C3)cc2)CC1', '5.00 to 6.00'),
  ('Cc1cc(C2CN(c3c(C)cccc3C(F)(F)F)C2)cc(C)c1CN1CCC(C(=O)O)CC1', '≥ 8.00'),
  ('Cc1cc(N2CC(c3c(Cl)cccc3Cl)C2)cc(C)c1CN1CCC(C(=O)O)CC1', '≥ 8.00'),
  ('Cc1cc(C2CN(c3ccccc3C3CC3)C2)cc(C)c1CN1CCC(C(=O)O)CC1', '7.00 to 8.00'),
  ('Cc1cc(CN2CCC(C(=O)O)CC2)cc(C)c1N1CC(c2c(Cl)cccc2Cl)C1', '≥ 8.00');
